Every entry's value here was drawn from paper PMC2824925.

method: Plasma pharmacokinetics of repeat-dose intravenous micafungin in young infants
Assay type: in vivo, human
measurement.conditions: human, plasma, iv, 7 mg/kg/day, AUC0–24, median (range), 7 mg/kg/day, 1-h IV infusion, day 4, infants ≥ 1,000 g, n=6, plasma, log-linear method
*1 amine or outer side, *2 acyl side, *3 side chain or, on linkers, in order; H or OH if unused. Where a SMILES comes first, the peptide text is derived from it. Bridges are numbered along the chain shown (N, C = ends). [ ]: non-standard residue; d: D form. The star is where a group is joined. hTyr(3S-OH,4S-OH,3'-OSO3H) = N[C@H](C(=O)O)[C@H](O)[C@@H](O)c1ccc(O)c(OS(=O)(=O)O)c1; Orn(4R-OH,5R-OH) = O=C([C@H](C[C@@H](O)[C@@H](O)N[*:3])N[*:1])[*:2]; Pro(3S-OH,4S-Me) = C[C@H]1CN[C@H](C(=O)O)[C@H]1O; X1 = CCCCCOc1ccc(-c2cc(-c3ccc(C(=O)*)cc3)no2)cc1; Gln(3R-OH) = NC(=O)C[C@@H](O)[C@H](N)C(=O)O; Hyp = O=C(O)[C@@H]1C[C@@H](O)CN1
recorded.endpoint: AUC(0-t) (µg·h/mL)

>  <molecule>
CCCCCOc1ccc(-c2cc(-c3ccc(C(=O)N[C@H]4C[C@@H](O)[C@@H](O)NC(=O)[C@@H]5[C@@H](O)[C@@H](C)CN5C(=O)[C@H]([C@H](O)CC(N)=O)NC(=O)[C@H]([C@H](O)[C@@H](O)c5ccc(O)c(OS(=O)(=O)O)c5)NC(=O)[C@@H]5C[C@@H](O)CN5C(=O)[C@H]([C@@H](C)O)NC4=O)cc3)no2)cc1 [micafungin] (X1-[Orn(4R-OH,5R-OH)]T[Hyp][hTyr(3S-OH,4S-OH,3'-OSO3H)][Gln(3R-OH)][Pro(3S-OH,4S-Me)]; lactam 1-C)

>  <recorded.endpoint>
AUC(0-t)

>  <unit.tag>
µg·h/mL

>  <assay.result>
258

$$$$

###

method: Plasma pharmacokinetics of repeat-dose intravenous micafungin in young infants
Assay type: in vivo, human
measurement.conditions: human, plasma, iv, 10 mg/kg/day, CLss/wt, median (range), 10 mg/kg/day, IV, day 4, infants < 1,000 g, n=6
*1 amine or outer side, *2 acyl side, *3 side chain or, on linkers, in order; H or OH if unused. Where a SMILES comes first, the peptide text is derived from it. Bridges are numbered along the chain shown (N, C = ends). [ ]: non-standard residue; d: D form. The star is where a group is joined. hTyr(3S-OH,4S-OH,3'-OSO3H) = N[C@H](C(=O)O)[C@H](O)[C@@H](O)c1ccc(O)c(OS(=O)(=O)O)c1; Orn(4R-OH,5R-OH) = O=C([C@H](C[C@@H](O)[C@@H](O)N[*:3])N[*:1])[*:2]; Pro(3S-OH,4S-Me) = C[C@H]1CN[C@H](C(=O)O)[C@H]1O; X1 = CCCCCOc1ccc(-c2cc(-c3ccc(C(=O)*)cc3)no2)cc1; Gln(3R-OH) = NC(=O)C[C@@H](O)[C@H](N)C(=O)O; Hyp = O=C(O)[C@@H]1C[C@@H](O)CN1

>  <compound>
CCCCCOc1ccc(-c2cc(-c3ccc(C(=O)N[C@H]4C[C@@H](O)[C@@H](O)NC(=O)[C@@H]5[C@@H](O)[C@@H](C)CN5C(=O)[C@H]([C@H](O)CC(N)=O)NC(=O)[C@H]([C@H](O)[C@@H](O)c5ccc(O)c(OS(=O)(=O)O)c5)NC(=O)[C@@H]5C[C@@H](O)CN5C(=O)[C@H]([C@@H](C)O)NC4=O)cc3)no2)cc1 [micafungin] (X1-[Orn(4R-OH,5R-OH)]T[Hyp][hTyr(3S-OH,4S-OH,3'-OSO3H)][Gln(3R-OH)][Pro(3S-OH,4S-Me)]; lactam 1-C)

>  <clearance>
0.57 mL/min/kg

$$$$

###

method: Plasma pharmacokinetics of repeat-dose intravenous micafungin in young infants
Type: in vivo, human
measurement.conditions: human, plasma, iv, 10 mg/kg/day, Vdss/wt, mean (SD), 10 mg/kg/day, IV, day 4, infants < 1,000 g, n=6; SD
*1 amine or outer side, *2 acyl side, *3 side chain or, on linkers, in order; H or OH if unused. Where a SMILES comes first, the peptide text is derived from it. Bridges are numbered along the chain shown (N, C = ends). [ ]: non-standard residue; d: D form. The star is where a group is joined. hTyr(3S-OH,4S-OH,3'-OSO3H) = N[C@H](C(=O)O)[C@H](O)[C@@H](O)c1ccc(O)c(OS(=O)(=O)O)c1; Orn(4R-OH,5R-OH) = O=C([C@H](C[C@@H](O)[C@@H](O)N[*:3])N[*:1])[*:2]; Pro(3S-OH,4S-Me) = C[C@H]1CN[C@H](C(=O)O)[C@H]1O; X1 = CCCCCOc1ccc(-c2cc(-c3ccc(C(=O)*)cc3)no2)cc1; Gln(3R-OH) = NC(=O)C[C@@H](O)[C@H](N)C(=O)O; Hyp = O=C(O)[C@@H]1C[C@@H](O)CN1

>  <compound>
CCCCCOc1ccc(-c2cc(-c3ccc(C(=O)N[C@H]4C[C@@H](O)[C@@H](O)NC(=O)[C@@H]5[C@@H](O)[C@@H](C)CN5C(=O)[C@H]([C@H](O)CC(N)=O)NC(=O)[C@H]([C@H](O)[C@@H](O)c5ccc(O)c(OS(=O)(=O)O)c5)NC(=O)[C@@H]5C[C@@H](O)CN5C(=O)[C@H]([C@@H](C)O)NC4=O)cc3)no2)cc1 [micafungin] (X1-[Orn(4R-OH,5R-OH)]T[Hyp][hTyr(3S-OH,4S-OH,3'-OSO3H)][Gln(3R-OH)][Pro(3S-OH,4S-Me)]; lactam 1-C)

>  <Vd [L/kg]>
0.51

$$$$

###

method: Plasma pharmacokinetics of repeat-dose intravenous micafungin in young infants
Type: in vivo, human
measurement.conditions: human, plasma, iv, 7 mg/kg/day, CLss/wt, mean (SD), 7 mg/kg/day, IV, day 4, infants ≥ 1,000 g, n=6; SD
*1 amine or outer side, *2 acyl side, *3 side chain or, on linkers, in order; H or OH if unused. Where a SMILES comes first, the peptide text is derived from it. Bridges are numbered along the chain shown (N, C = ends). [ ]: non-standard residue; d: D form. The star is where a group is joined. hTyr(3S-OH,4S-OH,3'-OSO3H) = N[C@H](C(=O)O)[C@H](O)[C@@H](O)c1ccc(O)c(OS(=O)(=O)O)c1; Orn(4R-OH,5R-OH) = O=C([C@H](C[C@@H](O)[C@@H](O)N[*:3])N[*:1])[*:2]; Pro(3S-OH,4S-Me) = C[C@H]1CN[C@H](C(=O)O)[C@H]1O; X1 = CCCCCOc1ccc(-c2cc(-c3ccc(C(=O)*)cc3)no2)cc1; Gln(3R-OH) = NC(=O)C[C@@H](O)[C@H](N)C(=O)O; Hyp = O=C(O)[C@@H]1C[C@@H](O)CN1

>  <compound>
CCCCCOc1ccc(-c2cc(-c3ccc(C(=O)N[C@H]4C[C@@H](O)[C@@H](O)NC(=O)[C@@H]5[C@@H](O)[C@@H](C)CN5C(=O)[C@H]([C@H](O)CC(N)=O)NC(=O)[C@H]([C@H](O)[C@@H](O)c5ccc(O)c(OS(=O)(=O)O)c5)NC(=O)[C@@H]5C[C@@H](O)CN5C(=O)[C@H]([C@@H](C)O)NC4=O)cc3)no2)cc1 [micafungin] (X1-[Orn(4R-OH,5R-OH)]T[Hyp][hTyr(3S-OH,4S-OH,3'-OSO3H)][Gln(3R-OH)][Pro(3S-OH,4S-Me)]; lactam 1-C)

>  <unit.tag>
mL/min/kg

>  <clearance>
0.4

$$$$

###

method: Plasma pharmacokinetics of repeat-dose intravenous micafungin in young infants
Type: in vivo, human
measurement.conditions: human, plasma, iv, 10 mg/kg/day, AUC0–24, median (range), 10 mg/kg/day, 1-h IV infusion, day 4, infants < 1,000 g, n=6, plasma, log-linear method
*1 amine or outer side, *2 acyl side, *3 side chain or, on linkers, in order; H or OH if unused. Where a SMILES comes first, the peptide text is derived from it. Bridges are numbered along the chain shown (N, C = ends). [ ]: non-standard residue; d: D form. The star is where a group is joined. hTyr(3S-OH,4S-OH,3'-OSO3H) = N[C@H](C(=O)O)[C@H](O)[C@@H](O)c1ccc(O)c(OS(=O)(=O)O)c1; Orn(4R-OH,5R-OH) = O=C([C@H](C[C@@H](O)[C@@H](O)N[*:3])N[*:1])[*:2]; Pro(3S-OH,4S-Me) = C[C@H]1CN[C@H](C(=O)O)[C@H]1O; X1 = CCCCCOc1ccc(-c2cc(-c3ccc(C(=O)*)cc3)no2)cc1; Gln(3R-OH) = NC(=O)C[C@@H](O)[C@H](N)C(=O)O; Hyp = O=C(O)[C@@H]1C[C@@H](O)CN1

>  <compound>
CCCCCOc1ccc(-c2cc(-c3ccc(C(=O)N[C@H]4C[C@@H](O)[C@@H](O)NC(=O)[C@@H]5[C@@H](O)[C@@H](C)CN5C(=O)[C@H]([C@H](O)CC(N)=O)NC(=O)[C@H]([C@H](O)[C@@H](O)c5ccc(O)c(OS(=O)(=O)O)c5)NC(=O)[C@@H]5C[C@@H](O)CN5C(=O)[C@H]([C@@H](C)O)NC4=O)cc3)no2)cc1 [micafungin] (X1-[Orn(4R-OH,5R-OH)]T[Hyp][hTyr(3S-OH,4S-OH,3'-OSO3H)][Gln(3R-OH)][Pro(3S-OH,4S-Me)]; lactam 1-C)

>  <AUC(0-t) (µg·h/mL)>
291

$$$$
